B1: KRT18 (parent)
chain: RAQYDELARKNREELDKYWSQQIE

Variants of: B1
Test protocol: protein stability index of a GFP-peptide fusion (GPS, HEK-293T) (PSI 1-6); higher = more stable;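 note: lentivirally expressed fusions sorted by FACS into six bins by GFP to DsRed ratio, PSI derived from sequencing read proportions per bin multiplied by bin number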
Applied conditions: c terminus: a fixed tail appended
Readout type: protein stability index
// no unit, no text: just the number

Given the variant RAQYDELARKNRMELDKYWSQQIE [E13M] , what is its reported protein stability index?
2.82

Same thing, different variant: RAQYDELARYNREELDKYWSQQIE [K10Y]
4.15

Same thing, different variant: RAQYDELMRKNREELDKYWSQQIE [A8M]
2.66

Same thing, different variant: RAQYDELAAKNREELDKYWSQQIE [R9A]
3.92

Same thing, different variant: RAQYQELARKNREELDKYWSQQIE [D5Q]
3.38

Same thing, different variant: RAQYDELARKFREELDKYWSQQIE [N11F]
1.94

Same thing, different variant: RAQYDELARKNRECLDKYWSQQIE [E14C]
3.42

Same thing, different variant: TAQYDELARKNREELDKYWSQQIE [R1T]
3.02

Same thing, different variant: RAQYDELARKQREELDKYWSQQIE [N11Q]
3.87

Same thing, different variant: RAQYDELARKNFEELDKYWSQQIE [R12F]
4.13

Same thing, different variant: RAQYDELARKNREELDKYWSQQCE [I23C]
3.45

Same thing, different variant: RAQYDELARKNRGELDKYWSQQIE [E13G]
3.92

Same thing, different variant: RAQYDELARKNRCELDKYWSQQIE [E13C]
2.81

Same thing, different variant: RAQYDELARWNREELDKYWSQQIE [K10W]
2.81

Same thing, different variant: RKQYDELARKNREELDKYWSQQIE [A2K]
2.65

Same thing, different variant: RAQYDQLARKNREELDKYWSQQIE [E6Q]
3.51

Same thing, different variant: RAQYDELARKNREELDWYWSQQIE [K17W]
3.65

Same thing, different variant: RGQYDELARKNREELDKYWSQQIE [A2G]
2.33

Same thing, different variant: RAQYDELERKNREELDKYWSQQIE [A8E]
4.57

Same thing, different variant: RAQYFELARKNREELDKYWSQQIE [D5F]
2.83

Same thing, different variant: RAQYDELARKNREELDKYWPQQIE [S20P]
3.85

Same thing, different variant: RAAYDELARKNREELDKYWSQQIE [Q3A]
2.68

Same thing, different variant: RAQYDELARKNHEELDKYWSQQIE [R12H]
3.64

Same thing, different variant: RAQYDELARKNREELDKYWSQFIE [Q22F]
2.75

Same thing, different variant: RAQYDELARKNNEELDKYWSQQIE [R12N]
3.94

Same thing, different variant: RAQYDELARKNREEKDKYWSQQIE [L15K]
3.87

Same thing, different variant: RAQYDELARKNREELDKYWSEQIE [Q21E]
2.88

Same thing, different variant: RAQYDKLARKNREELDKYWSQQIE [E6K]
3.48

Same thing, different variant: RAQYDELARKNREELDTYWSQQIE [K17T]
3.21

Same thing, different variant: RAQYDELARKNREELDKYWHQQIE [S20H]
1.59

Same thing, different variant: RAQHDELARKNREELDKYWSQQIE [Y4H]
3.45

Same thing, different variant: RAQYDELARTNREELDKYWSQQIE [K10T]
3.5

Same thing, different variant: RAQYDELARKNREELDKYWSQQIM [E24M]
2.31

Same thing, different variant: RAQYDELARKNREELDKYWSVQIE [Q21V]
3.17

Same thing, different variant: RAQYDELARKNREELDKYPSQQIE [W19P]
5.03

Same thing, different variant: RAQYDELARKNREELDKYWTQQIE [S20T]
2.79

Same thing, different variant: RAQYDELARKNREEPDKYWSQQIE [L15P]
4.6

Same thing, different variant: RAQYDHLARKNREELDKYWSQQIE [E6H]
3.41

Same thing, different variant: RAQYDELARKNREELDKYASQQIE [W19A]
4.73

Same thing, different variant: RAQYDELARKNREELDKYWSFQIE [Q21F]
3.62

Same thing, different variant: RAQYDELARKNREELDKYWSQLIE [Q22L]
3.15

Same thing, different variant: RAQYDELARKNREELDKYNSQQIE [W19N]
4.54

Same thing, different variant: RAQYDELARKNREELDKYWSIQIE [Q21I]
3.05

Same thing, different variant: RAQYDESARKNREELDKYWSQQIE [L7S]
3.84

Same thing, different variant: RAQYMELARKNREELDKYWSQQIE [D5M]
2.75

Same thing, different variant: RAQYDELGRKNREELDKYWSQQIE [A8G]
3.72
